# Assayed System: glucan synthase (GS) (Candida albicans)
# Construct: Extraction of GS activity from membranes was performed at a protein concentration of 5 mg/mL in extraction buffer; endogenous in cells; host or cells: Candida albicans MY1055 (membrane fraction, detergent extraction, product entrapment)
# Sequence (O13428 1-1897): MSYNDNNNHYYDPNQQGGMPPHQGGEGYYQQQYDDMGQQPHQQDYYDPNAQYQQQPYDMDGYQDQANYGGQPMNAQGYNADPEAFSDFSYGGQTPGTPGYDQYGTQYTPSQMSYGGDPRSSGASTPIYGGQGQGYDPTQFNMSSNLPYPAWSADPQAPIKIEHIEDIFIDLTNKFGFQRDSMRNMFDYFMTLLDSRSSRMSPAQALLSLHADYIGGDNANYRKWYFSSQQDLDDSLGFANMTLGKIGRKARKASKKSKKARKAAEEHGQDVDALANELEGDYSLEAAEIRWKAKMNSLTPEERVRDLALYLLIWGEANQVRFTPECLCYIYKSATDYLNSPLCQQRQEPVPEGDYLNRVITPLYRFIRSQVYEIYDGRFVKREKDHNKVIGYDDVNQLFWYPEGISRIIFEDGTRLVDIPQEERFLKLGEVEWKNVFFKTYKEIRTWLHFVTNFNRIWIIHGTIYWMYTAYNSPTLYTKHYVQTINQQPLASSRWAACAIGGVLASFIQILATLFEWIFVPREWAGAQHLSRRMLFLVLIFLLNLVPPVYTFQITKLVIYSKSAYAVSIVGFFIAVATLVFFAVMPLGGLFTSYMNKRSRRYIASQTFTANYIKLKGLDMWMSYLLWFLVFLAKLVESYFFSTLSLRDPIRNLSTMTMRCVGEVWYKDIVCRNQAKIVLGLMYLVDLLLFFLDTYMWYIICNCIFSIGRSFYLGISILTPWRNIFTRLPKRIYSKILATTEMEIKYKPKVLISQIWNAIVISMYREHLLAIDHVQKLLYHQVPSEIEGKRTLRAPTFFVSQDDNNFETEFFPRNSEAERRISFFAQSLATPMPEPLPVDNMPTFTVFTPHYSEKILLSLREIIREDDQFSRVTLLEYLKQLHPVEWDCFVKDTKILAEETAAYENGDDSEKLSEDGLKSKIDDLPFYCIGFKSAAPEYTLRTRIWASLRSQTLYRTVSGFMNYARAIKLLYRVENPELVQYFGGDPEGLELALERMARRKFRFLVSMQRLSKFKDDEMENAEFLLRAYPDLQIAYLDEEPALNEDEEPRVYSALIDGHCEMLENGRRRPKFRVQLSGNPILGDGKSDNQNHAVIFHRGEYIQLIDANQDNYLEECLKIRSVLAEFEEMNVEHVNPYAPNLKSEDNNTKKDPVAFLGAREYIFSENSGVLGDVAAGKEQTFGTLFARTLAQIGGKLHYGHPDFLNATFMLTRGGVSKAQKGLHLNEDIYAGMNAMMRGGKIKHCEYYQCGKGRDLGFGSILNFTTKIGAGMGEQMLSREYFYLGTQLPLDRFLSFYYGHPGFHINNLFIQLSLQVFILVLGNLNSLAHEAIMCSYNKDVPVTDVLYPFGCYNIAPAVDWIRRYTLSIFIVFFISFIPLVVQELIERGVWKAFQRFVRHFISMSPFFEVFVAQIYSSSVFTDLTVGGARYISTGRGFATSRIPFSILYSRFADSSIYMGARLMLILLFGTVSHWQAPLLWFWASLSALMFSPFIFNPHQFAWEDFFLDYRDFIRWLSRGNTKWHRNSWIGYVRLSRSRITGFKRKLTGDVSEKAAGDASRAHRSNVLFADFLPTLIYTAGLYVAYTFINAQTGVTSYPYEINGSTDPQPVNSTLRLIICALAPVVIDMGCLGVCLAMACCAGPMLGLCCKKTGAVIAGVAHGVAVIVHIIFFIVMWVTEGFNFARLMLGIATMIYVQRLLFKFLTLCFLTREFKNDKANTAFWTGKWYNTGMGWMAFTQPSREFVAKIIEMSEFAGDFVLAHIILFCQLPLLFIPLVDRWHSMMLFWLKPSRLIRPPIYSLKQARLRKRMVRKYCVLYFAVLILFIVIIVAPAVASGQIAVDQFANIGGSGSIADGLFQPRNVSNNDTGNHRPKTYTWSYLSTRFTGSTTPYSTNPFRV
# Sequence (O42825 1-195 partner limits assumed): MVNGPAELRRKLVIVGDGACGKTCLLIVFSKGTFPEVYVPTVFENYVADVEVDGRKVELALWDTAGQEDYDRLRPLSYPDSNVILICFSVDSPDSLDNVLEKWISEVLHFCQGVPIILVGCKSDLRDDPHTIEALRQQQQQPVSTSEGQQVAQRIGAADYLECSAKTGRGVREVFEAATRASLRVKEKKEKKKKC
# Measurement Notes: Glucan synthase inhibition (polymerization assay, 96-well)
# Format: biochemical
# Assay Context: glucan synthase prepared from Candida albicans MY1055; 60 min incubation at 22° C.; read-out: Candida Albicans GS IC50 (ng/mL) (converted)
Below, each entry is listed alongside its reported IC50.
Numbers only; they are read as nM.

[[record]]
compound = "CC(C)N[C@@](C)(CO[C@H]1[C@H](n2nnc(N)n2)C[C@@]23COC[C@]1(C)[C@@H]2CC[C@H]1C3=CC[C@@]2(C)[C@H](C(=O)O)[C@@](C)([C@H](C)C(C)C)CC[C@]12C)C(C)C"
quantity_measured = "IC50"
numeric_value = 8.61


Asked: Using the record for CC(C)[C@@H](C)[C@@]1(C)CC[C@]2(C)[C@H]3CC[C@@H]4[C@@]5(COC[C@@]4(C)[C@@H](OCC(C)(C)N)[C@H](n4nnc(N)n4)C5)C3=CC[C@@]2(C)[C@@H]1C(=O)O , report its IC50.
Given back: 4.79

Asked: Further, for CC(C)[C@@H](C)[C@@]1(C)CC[C@]2(C)[C@H]3CC[C@@H]4[C@@]5(COC[C@@]4(C)[C@@H](OC[C@](C)(NCCCO)C(C)C)[C@H](n4nnc(N)n4)C5)C3=CC[C@@]2(C)[C@@H]1C(=O)O ?
Given back: 2.8
